- Target Of Assay: CYP2A6 (Homo sapiens)
- Sequence (P11509 whole entry): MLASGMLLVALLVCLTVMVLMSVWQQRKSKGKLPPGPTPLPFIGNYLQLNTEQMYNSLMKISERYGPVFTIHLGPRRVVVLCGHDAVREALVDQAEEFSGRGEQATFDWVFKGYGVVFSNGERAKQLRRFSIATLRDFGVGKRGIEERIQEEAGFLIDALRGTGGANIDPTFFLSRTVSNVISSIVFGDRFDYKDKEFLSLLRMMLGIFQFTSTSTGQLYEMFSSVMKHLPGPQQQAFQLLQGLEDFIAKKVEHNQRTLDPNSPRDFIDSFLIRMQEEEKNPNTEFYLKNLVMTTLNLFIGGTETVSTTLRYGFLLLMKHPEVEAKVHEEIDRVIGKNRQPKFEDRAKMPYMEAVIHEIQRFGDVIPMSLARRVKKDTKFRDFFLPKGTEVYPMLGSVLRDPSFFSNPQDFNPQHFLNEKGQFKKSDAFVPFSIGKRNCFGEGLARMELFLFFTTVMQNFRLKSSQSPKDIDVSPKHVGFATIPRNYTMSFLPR
- Method: Direct CYP inhibition assay using pooled HLM
pIC50: −log10 of the molar value.
In this section we review reported pIC50 values for a set of compounds.

[
  {
    "Smiles Structure": "COc1cc2c(cc1O)CC[n+]1cc3c(OC)c(OC)ccc3cc1-2",
    "Measured Metric": "pIC50",
    "Result": "< 4.00"
  }
]

What measured pIC50 is associated with COc1ccc2cc3[n+](cc2c1O)CCc1cc2c(cc1-3)OCO2 on CYP2A6 (Homo sapiens)?
4.77

For COc1c(O)ccc2cc3[n+](cc12)CCc1cc2c(cc1-3)OCO2 then?
< 4.00

----------
- Target Of Assay: CYP2C8 (Homo sapiens, UniProt P10632)
- Sequence (P10632 whole entry): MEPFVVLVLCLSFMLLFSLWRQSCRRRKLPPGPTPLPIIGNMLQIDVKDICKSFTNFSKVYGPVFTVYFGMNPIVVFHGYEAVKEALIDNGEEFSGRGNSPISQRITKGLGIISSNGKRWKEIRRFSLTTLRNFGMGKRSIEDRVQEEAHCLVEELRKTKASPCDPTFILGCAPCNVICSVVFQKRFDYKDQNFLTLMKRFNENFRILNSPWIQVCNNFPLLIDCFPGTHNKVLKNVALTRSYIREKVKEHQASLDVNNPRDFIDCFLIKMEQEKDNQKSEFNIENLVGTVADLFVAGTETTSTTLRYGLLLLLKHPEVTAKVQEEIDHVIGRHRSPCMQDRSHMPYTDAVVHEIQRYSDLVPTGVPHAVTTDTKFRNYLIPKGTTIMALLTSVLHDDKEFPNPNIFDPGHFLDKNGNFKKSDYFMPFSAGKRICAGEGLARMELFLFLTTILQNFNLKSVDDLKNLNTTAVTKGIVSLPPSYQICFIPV
- Method: Direct CYP inhibition assay using pooled HLM
- Condition: read-out: IC50 CYP2C8; pooled HLM; direct inhibition; 95% confidence intervals in parentheses
Measured Metric: IC50

Reported IC50 for COc1ccc2cc3[n+](cc2c1OC)CCc1cc(O)c(O)cc1-3 : what is it?
> 100 µM

----------
- Target Of Assay: CYP2D6 (Homo sapiens, UniProt P10635)
- Sequence (P10635 whole entry): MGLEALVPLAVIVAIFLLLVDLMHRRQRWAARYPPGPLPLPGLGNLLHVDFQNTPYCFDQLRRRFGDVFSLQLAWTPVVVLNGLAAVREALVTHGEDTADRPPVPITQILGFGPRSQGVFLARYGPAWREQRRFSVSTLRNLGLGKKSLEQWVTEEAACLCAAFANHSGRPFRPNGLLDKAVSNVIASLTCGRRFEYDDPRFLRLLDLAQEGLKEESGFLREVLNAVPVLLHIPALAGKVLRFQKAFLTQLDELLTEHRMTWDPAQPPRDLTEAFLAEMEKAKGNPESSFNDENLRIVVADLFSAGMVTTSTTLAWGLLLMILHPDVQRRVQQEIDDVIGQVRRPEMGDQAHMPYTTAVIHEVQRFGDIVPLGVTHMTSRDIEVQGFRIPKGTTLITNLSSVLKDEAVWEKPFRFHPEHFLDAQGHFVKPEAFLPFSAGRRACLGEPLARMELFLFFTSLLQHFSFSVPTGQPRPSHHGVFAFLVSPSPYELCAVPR
- Method: Metabolism-dependent CYP2D6 inhibition assay (IC50 shift) using pooled HLM
- Condition: IC50 against CYP2D6, pre-incubation with NADPH, pooled HLM; 30 min pre-incubation with NADPH
In this section we review reported IC50 values for a set of compounds.
Please state the figure in µM; there is no need to write the unit.

[
  {
    "Smiles Structure": "COc1ccc2cc3[n+](cc2c1OC)CCc1cc2c(cc1-3)OCO2",
    "Target Of Assay": "CYP2D6 (Homo sapiens, UniProt P10635)",
    "Measured Metric": "IC50",
    "Numeric Value": 1.66
  }
]

Now turn to the next compound.
Form field: reported IC50 of COc1c(O)ccc2cc3[n+](cc12)CCc1cc2c(cc1-3)OCO2
6.49

----------
- Target Of Assay: CYP2C19 (Homo sapiens, UniProt P33261)
- Sequence (P33261 whole entry): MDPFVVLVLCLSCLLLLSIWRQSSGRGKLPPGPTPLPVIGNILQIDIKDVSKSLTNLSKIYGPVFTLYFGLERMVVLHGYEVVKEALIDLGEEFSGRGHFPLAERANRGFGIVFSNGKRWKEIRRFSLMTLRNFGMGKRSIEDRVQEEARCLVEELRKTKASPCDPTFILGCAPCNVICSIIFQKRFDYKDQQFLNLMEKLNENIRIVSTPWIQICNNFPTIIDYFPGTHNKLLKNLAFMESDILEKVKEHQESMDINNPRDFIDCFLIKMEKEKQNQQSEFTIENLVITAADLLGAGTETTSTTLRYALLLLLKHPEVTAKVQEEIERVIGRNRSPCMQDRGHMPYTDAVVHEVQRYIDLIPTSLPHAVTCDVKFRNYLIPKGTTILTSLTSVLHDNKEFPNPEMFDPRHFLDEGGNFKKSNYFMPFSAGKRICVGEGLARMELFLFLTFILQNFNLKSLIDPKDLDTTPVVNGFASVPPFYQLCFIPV
- Method: Direct CYP inhibition assay using pooled HLM
- Condition: read-out: IC50 CYP2C19; pooled HLM; direct inhibition; 95% confidence intervals in parentheses
Measured Metric: IC50 (µM)
# number only, unit µM dropped from output

Given the compound COc1ccc2c(c1O)CN1CCc3cc4c(cc3C1C2)OCO4 (centres unmarked) [TRB, Tetrahydroberberrubine·acetate] , what is its reported IC50?
5.4

----------
Entries and their measured Concentration in incubation mixture (elimination of BBR and formation of its metabolites) follow.
- Method: Metabolic stability and metabolite formation of BBR in pooled HLM
- Condition: BBR 1 µM in pooled HLM with NADPH-generating system; 60 min; mean ± SD
Use nM as the unit, but write only the number.

Solved cases below.
[
  {
    "Molecule": "COc1ccc2cc3[n+](cc2c1OC)CCc1cc(O)c(O)cc1-3 [DMB, demethyleneberberine]",
    "Numeric Value": 64.3
  },
  {
    "Molecule": "COc1cc2c(cc1O)CC[n+]1cc3c(OC)c(OC)ccc3cc1-2 [JTZ, jatrorrhizine]",
    "Numeric Value": 10.0
  },
  {
    "Molecule": "COc1ccc2cc3[n+](cc2c1O)CCc1cc2c(cc1-3)OCO2 [BRB, berberrubine]",
    "Numeric Value": 6.1
  },
  {
    "Molecule": "COc1c(O)ccc2cc3[n+](cc12)CCc1cc2c(cc1-3)OCO2 [TFD, thalifendine]",
    "Numeric Value": 50.4
  }
]

Next:
Record request: Concentration in incubation mixture (elimination of BBR and formation of its metabolites) value, item COc1ccc2cc3[n+](cc2c1OC)CCc1cc2c(cc1-3)OCO2 [BBR, berberine]
313
